Tested on: K4 kissing-loop RNA reporter;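 note: bound reporter read as fluorescence of individual clusters on recovered sequencing chips by microscopy, with normalized cluster intensities fitted with a binding model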
Run description: apparent KD of K4 kissing-loop reporter; higher = weaker reporter binding
Measurement parameters: Eterna round: R107; input ligand: tryptophan 2.4 mM
Measured endpoint: apparent KD of K4 kissing-loop reporter (µM)
Express the result in µM but write the number alone.

IN: What value of apparent KD of K4 kissing-loop reporter has been recorded for this entry: GACCGGCCGACGAGUGAUGUUCGAUGGGAAGGAGCGCGAAGAAAUGCAGGUAGGUCGCCCUAAGUAAUUGAAACGGCCGGAUUAU [2.)]
OUT: 0.102

IN: What value of apparent KD of K4 kissing-loop reporter has been recorded for this entry: CAAAUGUUGUCAGGAUAUGAGCGCAGUGAUGUUGCGGUUGUAUUUAUGACUGGAGCAGCGUAAGCCUCAGAAGGGACAAGUUGCC [Qubioran]
OUT: 0.0993

IN: What value of apparent KD of K4 kissing-loop reporter has been recorded for this entry: AAAACUCGGUAGUGAUGUUAUUGAGUGAACAAGGAUAUCUAUGAUAAGAGAAGGUGUAAGUUAAGCGUAUUUCGGCCUGUACAAU [theeternabot_sameState_KL_FMN_A_34]
OUT: 0.103
